The following substances are listed with their measured Fre (consensus frequency among sequenced phage clones) values.
# STUDY_TARGET: type V tartrate resistant acid phosphatase (TRAP) (Sus scrofa, UniProt P09889)
# Construct: One was from a purified protein extraction; from tissue; host or cells: gift of Dr. R. M. Roberts (University of Missouri)
# ASSAY_NOTES: Phage display bio-panning of random 12 amino acid M13 library with immobilized TRAP
# Format: binding
# CONDITION_DESCRIPTION: 44 phage clones sequenced after three rounds of bio-panning with TRAP
# Text: In phage display either random peptide libraries or cell specific cDNA libraries can be used. Both have been used to target the interactions that take place in bone resporbtion and formation. Generally, the peptides or proteins are expressed on the surface coat of M13 or T7 phage and then these phage are used in a biopanning technique to identify which phage have affinity for a particular substrate (the “bait”). The adherent phage are eluted, amplified and used in another round of panning. […]

Below: 3 substances and their reported Fre (consensus frequency among sequenced phage clones).
SEQ. ID No. 3: phage clone insert DNA from TRAP bio-panning, encodes peptide SEQ. ID No. 21 (DNA TCTCAGTGGCATCCGCGGTCTGCGTCGTATCCGATG; expressed or natural sequence): 4/44
SEQ. ID No. 6: phage clone insert DNA from TRAP bio-panning, encodes peptide SEQ. ID No. 24 (DNA CGGCCACGGAACACCAGTAGACGTCCCATGCGCAGA; expressed or natural sequence): 2/44
SEQ. ID No. 9: phage clone insert DNA from TRAP bio-panning, encodes peptide SEQ. ID No. 27 (DNA ACCAAGCCCCGAATCACGCGAATAAAGCGGCCAAGA; expressed or natural sequence): 2/44

# context switch: different substance, same Fre (consensus frequency among sequenced phage clones)
Asked: Look up Fre (consensus frequency among sequenced phage clones): SEQ. ID No. 7: phage clone insert DNA from TRAP bio-panning, encodes peptide SEQ. ID No. 25 (DNA ATAATGCGGAAACCGCGGAGCCGTAAAACCCATAGT; expressed or natural sequence)
Given back: 5/44

* * *

# STUDY_TARGET: type V tartrate resistant acid phosphatase (TRAP) (Sus scrofa)
# Construct: One was from a purified protein extraction; from tissue; host or cells: gift of Dr. R. M. Roberts (University of Missouri)
# Sequence (P09889 22-340): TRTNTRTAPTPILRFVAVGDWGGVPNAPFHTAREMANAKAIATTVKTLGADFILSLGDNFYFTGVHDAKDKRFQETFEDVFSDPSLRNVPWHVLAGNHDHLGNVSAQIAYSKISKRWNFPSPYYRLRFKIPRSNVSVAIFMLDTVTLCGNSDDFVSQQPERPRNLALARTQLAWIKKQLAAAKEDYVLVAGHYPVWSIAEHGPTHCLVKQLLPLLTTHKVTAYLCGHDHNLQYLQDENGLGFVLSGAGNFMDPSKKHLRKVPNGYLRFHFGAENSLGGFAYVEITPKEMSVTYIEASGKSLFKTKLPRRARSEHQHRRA
# ASSAY_NOTES: Phage display bio-panning of random 12 amino acid M13 library with immobilized TRAP
# Type: binding
# CONDITION_DESCRIPTION: 44 phage clones sequenced after three rounds of bio-panning with TRAP
REPORTED_PROPERTY: Fre (consensus frequency among sequenced phage clones)

SEQ. ID No. 2: phage clone insert DNA from TRAP bio-panning, encodes peptide SEQ. ID No. 20 (DNA ACTATGGGTTTTACGGCTCCGCGGTTTCCGCATTAT; expressed or natural sequence): 6/44
SEQ. ID No. 4: phage clone insert DNA from TRAP bio-panning, encodes peptide SEQ. ID No. 22 (DNA ACGCCGTCTCTTCCTCCGACTATGTTTCGGTTGACT; expressed or natural sequence): 4/44

Asked: Which Fre (consensus frequency among sequenced phage clones) is reported with type V tartrate resistant acid phosphatase (TRAP) (Sus scrofa) for this entry: SEQ. ID No. 8: phage clone insert DNA from TRAP bio-panning, encodes peptide SEQ. ID No. 26 (DNA CGGCCAACGGAACACCAGTAGACGTCCCATGCGCAG; expressed or natural sequence) ?
Given back: 2/44
